Measurement Description: small-molecule binders of probe aNOTCH3, primary screen, biochemical, small-molecule microarray, 635/667 nm fluorescence (AID 1120);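 also: probe is a biotin-tagged antibody raised against NOTCH3 rather than NOTCH3 protein; score merges spot fluorescence near 667 nm with spot signal to noise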
Cond: higher = more signal
Rule: composite z-score under -0.04 gives n, otherwise y.

Below, 6 molecules whose answers are already recorded.
[[record]]
molecule = "COc1ccc([Si](C)(C)[C@H]2[C@H](CCO)O[C@@]3(C(=O)N(Cc4ccc(N5C(=O)COc6ccccc65)cc4)c4ccccc43)[C@@H]2C)cc1"
group_label = "n"

[[record]]
molecule = "COCCOC(=O)N1C(=O)[C@@]2(c3cc(C#CC4=CCCCC4)ccc31)[C@H](C(=O)Nc1nc3ccccc3s1)[C@H]1C(=O)O[C@H](c3ccccc3)[C@H](c3ccccc3)N1[C@@H]2c1ccc(OCCO)cc1"
group_label = "y"

[[record]]
molecule = "COC(=O)[C@@]1(Cc2ccc(F)cc2)[C@@H]2[C@@H](CC(=O)[C@H]2CC(=O)C(=O)N(C)C)CN1C(=O)c1ccccc1"
group_label = "y"

[[record]]
molecule = "C=CCN1C(=O)[C@]2(O[C@H](CCO)[C@@H]([Si](C)(C)c3ccc(OC)cc3)[C@@H]2C)c2cc(N3CCCCC3=O)ccc21"
group_label = "y"

[[record]]
molecule = "C=CCN1C(=O)[C@]2(O[C@H](CCO)[C@@H]([Si](C)(C)c3ccc(OC)cc3)[C@@H]2C)c2cc(N3C(=O)c4cccc5cccc3c45)ccc21"
group_label = "y"

[[record]]
molecule = "C#CCN(CC1=CCCCC1)[C@H](c1ccccc1Br)[C@@H](O)Cc1ccccc1"
group_label = "n"


Query: Form field: composite z-score at least -0.04? Entry: "C=CCNC(=O)[C@H]1[C@@H]2C(=O)O[C@@H](c3ccccc3)[C@@H](c3ccccc3)N2[C@@H](c2ccc(OCCO)cc2)[C@]12C(=O)N(C(=O)OCCOC)c1ccccc12"
Response: y

Query: Form field: composite z-score at least -0.04? Entry: "COC(=O)[C@@]1(Cc2ccc(F)cc2)[C@H]2c3cc(C(=O)N4CCCC4)n(Cc4ccc(C)o4)c3C[C@H]2CN1C(=O)c1ccccc1"
Response: y

Query: Form field: composite z-score at least -0.04? Entry: "NCCCCCNC(=O)[C@@H]1C[C@@H]2C(=O)NCC(=O)N2[C@@H]1c1ccc(O)cc1"
Response: n

Query: Form field: composite z-score at least -0.04? Entry: CN1C(=O)C2C=CC(C(O)c3ccccc3)N(Nc3ccccc3)C2C1=O (centres undefined)
Response: n

Query: Form field: composite z-score at least -0.04? Entry: "CCOC(=O)C=Cc1cc([N+](=O)[O-])ccc1O"
Response: y

Query: Form field: composite z-score at least -0.04? Entry: C#CCN(Cc1ccccc1Br)C(/C=C/c1ccccc1)CO (centres undefined)
Response: n

Query: Form field: composite z-score at least -0.04? Entry: "COCCOC(=O)N1C(=O)[C@@]2(c3cc(C#CCCO)ccc31)[C@H](c1ccc(OCCO)cc1)N1[C@H](c3ccccc3)[C@H](c3ccccc3)OC(=O)[C@H]1[C@@H]2C(=O)N1CCN(c2ncccn2)CC1"
Response: y

Query: Form field: composite z-score at least -0.04? Entry: "O=C(NCc1ccccc1)[C@@]1(CCS(=O)(=O)c2ccccc2)N=C(c2ccc(OCCCO)cc2)O[C@H]1c1ccccc1"
Response: y
